Data provenance is the supplement of paper PMC10065799.

// phosphorylation enrichment lookup, one value per entry
tested on: AncSZ; test: phosphorylation enrichment, bacterial display (enrichment ratio); higher = better substrate or ligand; peptides without Tyr show the background;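 note: 11-residue human phosphosite peptides and single-mutation variants displayed on the E. coli surface, counted by deep sequencing, each peptide's frequency after selection divided by its frequency in the unselected input library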;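 note: frequency after pTyr selection over input frequency; kinase dosed for 20-30% of maximal phosphorylation in three min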
measure-name: phosphorylation enrichment

{"biosequence": "QKPLDYFRVNL [GALE_Y104_YF]", "assay-result": 1.41}
{"biosequence": "RRIFSYRGHLW [VHL_Y112_H110Y_YF]", "assay-result": 0.834}
{"biosequence": "GMSQAYSFSQR [DES_Y5_S7F]", "assay-result": 0.761}
{"biosequence": "FSEVRYMKEPF [HIPK4_Y170_V171M_YF]", "assay-result": 0.677}
{"biosequence": "GGKYSYLKVGH [GRM3_Y480]", "assay-result": 0.678}
{"biosequence": "EYGRRYGFSRQ [CCDC93_Y209]", "assay-result": 0.577}
{"biosequence": "STSYDYCRVPM [BST2_Y8]", "assay-result": 3.77}
{"biosequence": "HPHECYAKVFD [ALB_Y394_D389H]", "assay-result": 1.16}
{"biosequence": "SIYKDYYRYNF [PLA2G2D_Y85]", "assay-result": 1.39}
{"biosequence": "TSGVVYKARNK [CDK2_Y19_Y15S]", "assay-result": 0.53}
{"biosequence": "MFRAGYDTKQE [F10_Y407_C404R]", "assay-result": 0.671}
{"biosequence": "KAFDMYSGDVM [FAM3D_Y122]", "assay-result": 0.832}
{"biosequence": "LLLLFCVVRFC [MPZ_Y177_Y177C_YF]", "assay-result": 1.01}
{"biosequence": "KLPDAYERLIL [G6PD_Y437]", "assay-result": 0.756}

====

tested on: c-Abl (mouse); test: phosphorylation enrichment, bacterial display (enrichment ratio); higher = better substrate or ligand; peptides without Tyr show the background
Definition: the class of an entry is the range in category 1: < 0.6; category 2: ≥ 0.6 and < 0.9; category 3: ≥ 0.9 that contains its phosphorylation enrichment.

{"biosequence": "RELGKYGLQAY [ALDH2_Y497_E496K]", "label": "category 1"}
{"biosequence": "RRAKGYPINLF [ITGB2_Y125_D128N_YF]", "label": "category 1"}
{"biosequence": "ALDRPYTSKHS [NANS_Y71_E68D]", "label": "category 2"}
{"biosequence": "HCEDGYPGGSD [CTNND1_Y221_Y217C]", "label": "category 3"}
{"biosequence": "ASSPVYVPTTR [GATA6_Y188]", "label": "category 1"}
{"biosequence": "QNTVDYFDLFG [PTPN11_Y62_G60V_YF]", "label": "category 3"}
{"biosequence": "RRIFSYRGHLW [VHL_Y112_H110Y_YF]", "label": "category 3"}
{"biosequence": "HEKKVYSFCGT [RPS6KA3_Y226_A225V]", "label": "category 2"}
{"biosequence": "ISDDKYGRIRL [ARCN1_Y310]", "label": "category 1"}
{"biosequence": "RVILRYVNPGN [LAMA3_Y791_T796N]", "label": "category 3"}
{"biosequence": "SNKLFYQLEQE [PDPR_Y110_YF]", "label": "category 2"}

====

system: c-Src; assay: phosphorylation enrichment, bacterial display (enrichment ratio); higher = better substrate or ligand; peptides without Tyr show the background
// phosphorylation enrichment lookup, one value per entry

{"biosequence": "LLLLFCVVRFC [MPZ_Y177_Y177C_YF]", "phosphorylation enrichment": 0.719}
{"biosequence": "LRNIDYYRLDG [ATRX_Y2083]", "phosphorylation enrichment": 3.35}
{"biosequence": "PPGRSYSPFDF [TNS1_Y793_YF]", "phosphorylation enrichment": 0.497}
{"biosequence": "SISLKYEGRVF [ABL1_Y167_R166K_YF]", "phosphorylation enrichment": 0.398}
{"biosequence": "KAFDMYSGDVM [FAM3D_Y122]", "phosphorylation enrichment": 0.935}
{"biosequence": "AGLVQYYMEHH [PTPN11_Y80_E76G]", "phosphorylation enrichment": 0.468}
{"biosequence": "LHAAAYQNALA [UQCRC2_Y182_R183Q]", "phosphorylation enrichment": 0.393}
{"biosequence": "TYEPNYGTVKR [RAPGEF6_Y1447_Q1452R]", "phosphorylation enrichment": 3.06}
{"biosequence": "QWLEQYTQAIE [LSP1_Y234]", "phosphorylation enrichment": 0.406}
{"biosequence": "AIGYEYSEINI [SIGLEC12_Y588]", "phosphorylation enrichment": 2.03}
{"biosequence": "FSMGCYEIFLG [HMGCL_Y198_S201Y_YF]", "phosphorylation enrichment": 6.25}
{"biosequence": "DDPRTYQKYGY [OAS1_Y362_R361T]", "phosphorylation enrichment": 0.549}
{"biosequence": "RVILRYVNPGN [LAMA3_Y791_T796N]", "phosphorylation enrichment": 0.75}
{"biosequence": "LENSTYQFIRV [CRB1_Y760_YF]", "phosphorylation enrichment": 3.85}
{"biosequence": "MASTSYDYCRV [BST2_Y6]", "phosphorylation enrichment": 0.577}
{"biosequence": "LLANAYIYVVQ [L1CAM_Y418]", "phosphorylation enrichment": 0.602}
{"biosequence": "KGLKVYVNGTL [ADGRD1_Y183_E178K]", "phosphorylation enrichment": 0.406}
{"biosequence": "TSYQMYDKGLV [IARS2_Y231_F227S]", "phosphorylation enrichment": 0.54}
{"biosequence": "RESFKYLPSSL [CXXC1_Y218_F219L_YF]", "phosphorylation enrichment": 0.429}
{"biosequence": "HRGCLYLAIEF [TEK_Y899_Y897C_YF]", "phosphorylation enrichment": 0.49}
{"biosequence": "YGEYRYRSVIK [CFTR_Y517_D513G]", "phosphorylation enrichment": 4.36}
{"biosequence": "RLQEDYDHSFF [ESD_Y258_G257D_YF]", "phosphorylation enrichment": 1.07}
{"biosequence": "AEYGLYGAMVR [VSX2_Y222]", "phosphorylation enrichment": 5.06}
{"biosequence": "YGGLRCGYGVL [KRTAP20-2_Y13_Y13C]", "phosphorylation enrichment": 1.05}
{"biosequence": "KKKKQYKDKFL [CASK_Y708_YF]", "phosphorylation enrichment": 0.739}
{"biosequence": "PHQTIYGALMI [FGF23_Y70_S71G]", "phosphorylation enrichment": 5.96}
{"biosequence": "GCAGKYIAMVM [CYP19A1_Y441]", "phosphorylation enrichment": 0.414}
{"biosequence": "EEQKKYYNAVK [SCN5A_Y1494_M1498V]", "phosphorylation enrichment": 0.548}
{"biosequence": "ERWLKYFPIEQ [HS3ST5_Y244]", "phosphorylation enrichment": 0.288}
{"biosequence": "PVKSEYSSIKL [NPC2_Y119_P120S]", "phosphorylation enrichment": 0.602}
{"biosequence": "TLQVMYGCDVG [HLA-B_Y123_S121V]", "phosphorylation enrichment": 0.589}
{"biosequence": "ADRNHYRRYRR [YBX1_Y145_P149R]", "phosphorylation enrichment": 0.608}
{"biosequence": "STTSDYQWDVS [MTDH_Y364]", "phosphorylation enrichment": 0.407}
{"biosequence": "SNFRAYATEPH [TNNI3_Y29_YF]", "phosphorylation enrichment": 0.486}
{"biosequence": "EGQKIYIDDNN [PIP4K2A_Y246]", "phosphorylation enrichment": 0.467}
{"biosequence": "HNVPIYEGYGL [ACTA1_Y168_A172G]", "phosphorylation enrichment": 11.5}
{"biosequence": "VNFGAYINFFK [GLB1_Y488_D491Y_YF]", "phosphorylation enrichment": 0.717}
{"biosequence": "VLTPKYRGGGG [HBA1_Y141_S139P]", "phosphorylation enrichment": 0.34}
{"biosequence": "GIFKDYFRFNF [PLA2G2D_Y85_S80G_YF]", "phosphorylation enrichment": 0.622}
{"biosequence": "TFRPPYYHRNC [HGD_Y333]", "phosphorylation enrichment": 0.559}
{"biosequence": "PDGHEYIFVDP [PDGFRA_Y572_YF]", "phosphorylation enrichment": 0.495}
{"biosequence": "GGKYSYLKVGH [GRM3_Y480]", "phosphorylation enrichment": 0.4}
{"biosequence": "MKSIKYMDKEV [CCDC60_Y41_I46V]", "phosphorylation enrichment": 0.375}
{"biosequence": "KQRKEYMHRRQ [IQGAP2_Y710]", "phosphorylation enrichment": 0.518}
{"biosequence": "KEAVLYPHLPP [SQSTM1_Y383_A381V]", "phosphorylation enrichment": 0.464}
{"biosequence": "ADKAAYLQSMN [MYH2_Y389_L393M]", "phosphorylation enrichment": 0.459}
{"biosequence": "QKKPCYEIRWK [PDGFRB_Y562_R561C]", "phosphorylation enrichment": 0.361}
{"biosequence": "MDNQEYKDAYK [BRDT_Y331]", "phosphorylation enrichment": 0.368}
{"biosequence": "NGQALYAACQT [XDH_Y1092_V1091L]", "phosphorylation enrichment": 3.35}
{"biosequence": "DLDLTSIYPNI [PTEN_Y27_Y27S]", "phosphorylation enrichment": 0.53}
{"biosequence": "GSESDYIIMPN [SCARB1_Y133_V135I]", "phosphorylation enrichment": 0.6}
{"biosequence": "VVIMLYGVDSR [PKD1_Y3143_G3139V]", "phosphorylation enrichment": 0.524}
{"biosequence": "DWQQEYVLNES [TGM1_Y267_R264Q]", "phosphorylation enrichment": 2.73}
{"biosequence": "LNPFIYSLRNW [OR1A2_Y288]", "phosphorylation enrichment": 8.69}
{"biosequence": "SVVVPFEPPEV [TP53_Y220_Y220F]", "phosphorylation enrichment": 0.552}
{"biosequence": "HITQVYGFYDE [PPP2CA_Y127_Q122H]", "phosphorylation enrichment": 12.3}
{"biosequence": "TFGVVYKARNK [CDK2_Y19_YF]", "phosphorylation enrichment": 0.346}
